From: patent US20240408169A1

Test system: OVCAR3 cells
Experiment: MTT proliferation assay, OVCAR3
Type: cell-based
Details: 5 days compound exposure, 1:3 serial dilution starting at 10 μM
*1 amine or outer side, *2 acyl side, *3 side chain or, on linkers, in order; H or OH if unused. Where a SMILES comes first, the peptide text is derived from it. Bridges are numbered along the chain shown (N, C = ends). [ ]: non-standard residue; d: D form. The star is where a group is joined. NMePhe(2-(4-MorPh),5-Cl) = CN[C@@H](Cc1cc(Cl)ccc1-c1ccc(N2CCOCC2)cc1)C(=O)O; X122 = CN([C@@H](Cc1cc(Cl)ccc1C1=CCN(C(=O)C(C)(C)C)CC1)C(=O)[*:2])[*:1]; NMehhhLys(Me) = CN([C@@H](CCCCCCCN(C)[*:3])C(=O)[*:2])[*:1]; cBuCO(3,3-F2-1-CF3) = O=C(C1(C(F)(F)F)CC(F)(F)C1)*; Pro(trans-4-F) = O=C(O)[C@@H]1C[C@@H](F)CN1; Gly(cPr) = N[C@H](C(=O)O)C1CC1
Can you tell me GI50 for the items I'm about to list?
Output spec: scalar in nM, unitless text.

Looking up CC(C)C[C@@H]1NC(=O)C(N(C)C(=O)[C@@H](NC(=O)[C@@H]2C[C@@H](F)CN2C(=O)C2(C(F)(F)F)CC(F)(F)C2)C2CC2)C/C=C\CCCCN(C)C(=O)[C@H](Cc2cc(Cl)ccc2-c2ccc(N3CCN(C)CC3)cc2)N(C)C1=O (stereo partly shown) [Example 397] , I see its GI50 listed as 10

Looking up COCn1cc(-c2ccc(Cl)cc2C[C@H]2C(=O)N(C)CCCCC=CC[C@H](N(C)C(=O)[C@@H](NC(=O)[C@@H]3C[C@@H](F)CN3C(=O)C3(C(F)(F)F)CCC3)C3CC3)C(=O)N[C@@H](CC(C)C)C(=O)N2C)cn1 [Example 80] , I see its GI50 listed as 30

Looking up CC(C)C[C@@H]1NC(=O)[C@@H](N(C)C(=O)[C@@H](NC(=O)[C@@H]2C[C@@H](F)CN2C(=O)C2(C(F)(F)F)CC(F)(F)C2)C2CC2)CCCCCCCN(C)C(=O)[C@H](Cc2cc(Cl)ccc2C2=CCN(C(=O)C(C)(C)C)CC2)N(C)C1=O [Example 144] ({cBuCO(3,3-F2-1-CF3)}-[Pro(trans-4-F)][Gly(cPr)][NMehhhLys(Me)]L[X122]; lactam 3-C) , I see its GI50 listed as 70

Looking up CC(C)C[C@@H]1NC(=O)[C@@H](N(C)C(=O)[C@H](CCC(=O)O)NC(=O)[C@@H]2C[C@@H](F)CN2C(=O)C2(C(F)(F)F)CC(F)(F)C2)CCCCCCCN(C)C(=O)[C@H](Cc2cc(Cl)ccc2-c2ccc(N3CCOCC3)cc2)N(C)C1=O [Example 418] ({cBuCO(3,3-F2-1-CF3)}-[Pro(trans-4-F)]E[NMehhhLys(Me)]L[NMePhe(2-(4-MorPh),5-Cl)]; lactam 3-C) , I see its GI50 listed as 1150

----------
Tested on: OVCAR3 cells
Assay: MTT proliferation assay, OVCAR3;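 further: compound given as an 8- or 10-point series, one day after plating, with exposure covering roughly 3-4 cell doublings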
Assay type: cell-based
Details: 5 days compound exposure, 1:3 serial dilution starting at 10 μM
*1 amine or outer side, *2 acyl side, *3 side chain or, on linkers, in order; H or OH if unused. Where a SMILES comes first, the peptide text is derived from it. Bridges are numbered along the chain shown (N, C = ends). [ ]: non-standard residue; d: D form. The star is where a group is joined. X62 = CN1CCC[C@H](c2ccc(-c3ccc(Cl)cc3C[C@@H](C(=O)[*:2])N(C)[*:1])cc2)C1; X144 = CN([C@@H](Cc1cc(Cl)ccc1-c1ccc(N2CC(C)(F)C2)nc1)C(=O)[*:2])[*:1]; X203 = CN([C@@H](Cc1cc(Cl)ccc1-c1cnn(C(F)F)c1)C(=O)[*:2])[*:1]; X97 = CN([C@@H](Cc1cc(Cl)ccc1-c1ccn2ncnc2c1)C(=O)[*:2])[*:1]; NMehhhLys(Me) = CN([C@@H](CCCCCCCN(C)[*:3])C(=O)[*:2])[*:1]; NMe(hhhLys) = CN([C@@H](CCCCCCCN[*:3])C(=O)[*:2])[*:1]; X164 = C=C(C)c1ccc(Cl)cc1C[C@@H](C(=O)[*:2])N(C)[*:1]; cBuCO(3,3-F2-1-CF3) = O=C(C1(C(F)(F)F)CC(F)(F)C1)*; Pro(trans-4-F) = O=C(O)[C@@H]1C[C@@H](F)CN1; Gly(cPr) = N[C@H](C(=O)O)C1CC1
Can you tell me GI50 for the items I'm about to list?
Output spec: scalar in nM, unitless text.

Looking up CC(C)C[C@@H]1NC(=O)[C@@H](N(C)C(=O)[C@@H](NC(=O)[C@@H]2C[C@@H](F)CN2C(=O)C2(C(F)(F)F)CC(F)(F)C2)C2CC2)CCCCCCCN(C)C(=O)[C@H](Cc2cc(Cl)ccc2-c2ccn3ncnc3c2)N(C)C1=O [Example 179] ({cBuCO(3,3-F2-1-CF3)}-[Pro(trans-4-F)][Gly(cPr)][NMehhhLys(Me)]L[X97]; lactam 3-C) , I see its GI50 listed as 30

Looking up CC(C)C[C@@H]1NC(=O)[C@@H](N(C)C(=O)[C@@H](NC(=O)[C@@H]2C[C@@H](F)CN2C(=O)C2(C(F)(F)F)CC(F)(F)C2)C2CC2)CCCCCCCN(C)C(=O)[C@H](Cc2cc(Cl)ccc2-c2cnn(C(F)F)c2)N(C)C1=O [Example 200] ({cBuCO(3,3-F2-1-CF3)}-[Pro(trans-4-F)][Gly(cPr)][NMehhhLys(Me)]L[X203]; lactam 3-C) , I see its GI50 listed as 30

Looking up CC[C@H](NC(=O)[C@@H]1C[C@@H](F)CN1C(=O)C1(C(F)(F)F)CC1)C(=O)N[C@H]1CC=CCCCCNC(=O)[C@H](Cc2cc(Cl)ccc2Cl)N(C)C(=O)[C@H](CC(C)C)NC1=O , I see its GI50 listed as 410

Looking up CC(C)C[C@@H]1NC(=O)[C@@H](N(C)C(=O)[C@@H](NC(=O)[C@@H]2C[C@@H](F)CN2C(=O)C2(C(F)(F)F)CC(F)(F)C2)C2CC2)CCCCCCCN(C)C(=O)[C@H](Cc2cc(Cl)ccc2-c2ccc(N3CC(C)(F)C3)nc2)N(C)C1=O [Example 402] ({cBuCO(3,3-F2-1-CF3)}-[Pro(trans-4-F)][Gly(cPr)][NMehhhLys(Me)]L[X144]; lactam 3-C) , I see its GI50 listed as 10

Looking up CC(C)C[C@@H]1NC(=O)[C@@H](N(C)C(=O)[C@@H](NC(=O)[C@@H]2C[C@@H](F)CN2C(=O)C2(C(F)(F)F)CC(F)(F)C2)C2CC2)CCCCCCCN(C)C(=O)[C@H](Cc2cc(Cl)ccc2-c2ccc([C@H]3CCCN(C)C3)cc2)N(C)C1=O [Example 412] ({cBuCO(3,3-F2-1-CF3)}-[Pro(trans-4-F)][Gly(cPr)][NMehhhLys(Me)]L[X62]; lactam 3-C) , I see its GI50 listed as 10

Looking up C=C(C)c1ccc(Cl)cc1C[C@H]1C(=O)NCCCCCCC[C@H](N(C)C(=O)[C@@H](NC(=O)[C@@H]2C[C@@H](F)CN2C(=O)C2(C(F)(F)F)CC(F)(F)C2)C2CC2)C(=O)N[C@@H](CC(C)C)C(=O)N1C [Example 61] ({cBuCO(3,3-F2-1-CF3)}-[Pro(trans-4-F)][Gly(cPr)][NMe(hhhLys)]L[X164]; lactam 3-C) , I see its GI50 listed as 40
